- Test system: DC3F/AD
- Assay Comment: In vitro activity in DC-3F/AD cell line Ratio of IC50(actinomycin D alone) / IC50(actinomycin D + modulator) at a concentration of 10 uM
Rule: Fold reversion under 2000 gives no, otherwise yes.

Can C=CCNc1nc(NCC=C)nc(N2CCC(NCC3c4ccccc4CSc4ccccc43)CC2)n1 (stereo not given) be said to have Fold reversion at or above 2000?
yes

Item C=CCNc1nc(NCC=C)nc(N2CCC(NCC3c4ccccc4CS(=O)(=O)c4ccccc43)CC2)n1 (stereo not given) with Fold reversion of 2000 or above?
yes

In plain terms: is recorded Fold reversion at least 2000 for "C=CCNc1nc(NCCC)nc(N2CCC(NC(c3ccc(F)cc3)c3ccc(F)cc3)CC2)n1.Cl.Cl" ?
yes

Is Fold reversion at least 2000? Consider "C=CCNc1nc(NCC=C)nc(N2CCN(C(c3ccc(F)cc3)c3ccc(F)cc3)CC2)n1.CS(=O)(=O)O"
no

Would you say C=CCNc1nc(NCC=C)nc(N2CCC(NCC3c4ccccc4N(C)S(=O)(=O)c4cc(Cl)ccc43)CC2)n1 (stereo not given) shows Fold reversion at minimum 2000?
yes

====

Record form. Attribute: Viability. Fill in for each entry.
- Test system: DC3F/AD
- Assay Comment: Percent of cell viability remaining after incubating with a 10 uM concentration
- Format: functional, Cricetulus griseus
Number in %, nothing else.

Data request, read-out Viability, for C=CCNc1nc(NCC=C)nc(N2CCC(NCC3c4ccccc4CS(=O)(=O)c4ccccc43)CC2)n1 (centres undefined)
94

Value lookup for Viability; key = "C=CCNc1nc(NCC=C)nc(N2CCC(N(CC=C)C(c3ccc(F)cc3)c3ccc(F)cc3)CC2)n1"
49

Need Viability of "C=CCNc1nc(NCC=C)nc(N2CCC(NCC3c4ccccc4-c4ccccc43)CC2)n1" , thanks.
75

Recorded Viability for "C=CCNc1nc(NCC=C)nc(N2CCC(NCC(c3ccc(F)cc3)c3ccc(F)cc3)CC2)n1" , please?
62

I'd like to know its Viability. The compound in question is COc1ccc(CCN(C)CCCC(C#N)(c2ccc(OC)c(OC)c2)C(C)C)cc1OC (centres undefined)
39

Can you share its Viability? I mean this compound: "C=CCNc1nc(NCC=C)nc(N2CCN(CCC(c3ccccc3)c3ccccc3)CC2)n1"
64

Which Viability value belongs to C=CCNc1nc(NCC=C)nc(N2CCC(NCC3c4ccccc4NC(=O)c4ccccc43)CC2)n1 (centres undefined) ?
100

Looking for the measured Viability of "C=CCNc1nc(NCC=C)nc(N2CCC(CNC3c4ccccc4CCc4ccccc43)CC2)n1" , can you help?
72

// lookup Viability for "C=CCNc1nc(NCC=C)nc(N2CCC(NC(c3ccccc3)c3ccccc3)CC2)n1"
61

====

Consider the following compounds; for each one, report its Viability.
- System: KB
- Assay Comment: Percent of cell viability remaining after incubating the cells with the modulator alone
- Type: functional, Homo sapiens
- Set-up: concentration or dose not given beside the values
Write the value in % as a bare number.

Consider the compound C=CCNc1nc(NCC=C)nc(N2CCC(NCC3c4ccccc4CSc4ccccc43)CC2)n1 (configuration not stated) and give its measured Viability.
108

I have this compound here, C=CCNc1nc(NCC=C)nc(N2CCC(NCC3c4ccccc4N(C)S(=O)(=O)c4cc(Cl)ccc43)CC2)n1 (configuration not stated) , and I need its recorded Viability.
92

Using the record for "C=CCNc1nc(NCC=C)nc(N2CCN(NCC3c4ccccc4CCc4ccccc43)CC2)n1" , report its Viability.
96

# Viability lookup, item "C=CCNc1nc(NCC=C)nc(N2CCC(N(C)CC3c4ccccc4CCc4ccccc43)CC2)n1"
111

Bench note: what Viability did "C=CCNc1nc(NCC=C)nc(N2CCC(NC3c4ccccc4CCc4ccccc43)CC2)n1" show?
74

For the compound "C=CCNc1nc(NCC)nc(N2CCC(NCC3c4ccccc4CCc4ccccc43)CC2)n1" , what Viability is on record?
58

Can you share its Viability? I mean this compound: "C=CCNc1nc(NCC=C)nc(N2CCC(NCC3c4ccccc4Oc4ccccc43)CC2)n1"
106

Requested field: Viability. Item: "C=CCNc1nc(Cl)nc(N2CCC(NCC3c4ccccc4CCc4ccccc43)CC2)n1"
63

Which Viability value belongs to C=CCNc1nc(NCC=C)nc(N2CCC(NCC(c3ccccc3)S(=O)(=O)c3ccccc3)CC2)n1 (configuration not stated) ?
115

Which Viability value is on record for C=CCNc1nc(NCC=C)nc(N2CCC(NCC3c4ccccc4NC(=O)c4ccccc43)CC2)n1 (configuration not stated) ?
113

Returns the measured Viability for the input compound. Input: "C=CCN(CC=C)c1nc(N(CC=C)CC=C)nc(N2CCC(NCC(c3ccccc3)c3ccccc3)CC2)n1"
78

Name the reported Viability value associated with the compound "C=CCNc1nc(NCCC)nc(N2CCC(NCC3c4ccccc4CCc4ccccc43)CC2)n1"
55

# input compound: "C=CCNc1nc(N)nc(N2CCC(NCC3c4ccccc4CCc4ccccc43)CC2)n1" ; wanted: its Viability
122

Field request: Viability | item: C=CCNc1nc(NCC=C)nc(N2CCC(NC3CC4c5ccccc5C3c3ccccc34)CC2)n1 (configuration not stated)
133

# input compound: "C=CCNc1nc(NCC=C)nc(N2CCN(C3c4ccccc4CCc4ccccc43)CC2)n1" ; wanted: its Viability
108

Find the recorded Viability belonging to "C=CCNc1nc(NCC=C)nc(N2CCC(NCC3c4ccccc4CCc4ccccc43)CC2)n1" and report it.
68

What value of measured Viability is listed for C=CCNc1nc(NCC=C)nc(N2CCC(NCC3c4ccccc4CCc4cc(OC)ccc43)CC2)n1 (configuration not stated) ?
83

====

- Tested on: DC3F/AD
- Assay Comment: Increase in adriamycin uptake in modulator-treated cells relative to untreated cells at a concentration of 10 uM
- Type: functional, Cricetulus griseus
Label TRUE when Increase is at or above 30; otherwise label FALSE.

Reported Increase reaches at least 30 for C=CCNc1nc(NCC=C)nc(N2CCC(NCC3c4ccccc4COc4ccccc43)CC2)n1 (stereo not given) ?
FALSE

Check this compound for Increase at or above 30: "C=CCNc1nc(NCC=C)nc(N2CCC(NC(c3ccccc3)c3ccccc3)CC2)n1"
TRUE

Given "C=CCNc1nc(NCC=C)nc(NCCN2CCN(C3c4ccccc4CCc4ccccc43)CC2)n1" , state whether its Increase is at least 30.
FALSE

Dear colleague, could you confirm whether C=CCNc1nc(NCC=C)nc(N2CCC(NCC3c4ccccc4NC(=O)c4ccccc43)CC2)n1 (stereo not given) has Increase at or above 30?
TRUE

Kindly determine if Increase recorded for C=CCNc1nc(NCC=C)nc(N2CCC(NC(c3ccccc3)c3ccc(F)cc3)CC2)n1.Cl (stereo not given) is above or exactly 30.
FALSE

====

- Tested on: DC3F/AD
- Assay Comment: Percent of cell viability remaining after incubating with a 10 uM concentration
- Type: functional, Cricetulus griseus
Assay Readout: Viability (%)
Please reply with the bare figure in % and do not write the unit itself.

// returns reported Viability for input "C=CCNc1nc(NCCC)nc(N2CCC(NC(c3ccc(F)cc3)c3ccc(F)cc3)CC2)n1.Cl.Cl"
47

Fill in the blank: the reported Viability of "C=CCNc1nc(NCC=C)nc(N2CCC(OC(c3ccc(F)cc3)c3ccc(F)cc3)CC2)n1.Cl" is ____.
56

Any idea what Viability was measured for "C=CCNc1nc(NCC)nc(N2CCC(NCC3c4ccccc4CCc4ccccc43)CC2)n1" ?
64

Return reported Viability; argument: "CN(C)c1nc(N(C)C)nc(N2CCC(NCC3c4ccccc4CCc4ccccc43)CC2)n1"
66

# get_value(readout='Viability', item= "C=CCNc1nc(NCC=C)nc(N2CCC(SC(c3ccccc3)c3ccccc3)CC2)n1" )
76

====

- Test system: DC3F/AD
- Assay Comment: Increase in adriamycin uptake in modulator-treated cells relative to untreated cells at a concentration of 10 uM
- Format: functional, Cricetulus griseus
Provide the recorded Increase for the entries that follow.
Write the number on its own, no unit after it.

Notebook entry, DC3F/AD assay: Increase of "C=CCNc1nc(NCC=C)nc(N2CCC(NCC3c4ccccc4C=Cc4ccccc43)CC2)n1" = ?
25.8

Enter reported Increase observed with DC3F/AD for "C=CCNc1nc(NCC=C)nc(NCC2CCN(C3c4ccccc4CCc4ccccc43)CC2)n1"
17.4

Please tell me: Increase of "C=CCNc1nc(NCC=C)nc(N2CCC(NCC(c3c(C)cccc3C)c3c(C)cccc3C)CC2)n1" , system DC3F/AD?
35.5

Observed Increase on DC3F/AD for "C=CCNc1nc(NCC=C)nc(N2CCC(OC(c3ccc(F)cc3)c3ccc(F)cc3)CC2)n1.Cl" , please.
16.1

Enter reported Increase observed with DC3F/AD for "C=CCNc1nc(NCC=C)nc(N2CCC(NCC3c4ccccc4-c4ccccc43)CC2)n1"
23.2

API: value(readout= Increase, system= DC3F/AD, query= "C=CCNc1nc(N)nc(N2CCC(NCC3c4ccccc4CCc4ccccc43)CC2)n1" )
11

# returns recorded Increase (system: DC3F/AD) for "C=CCNc1nc(NCC=C)nc(N2CCN(NC(=O)C3c4ccccc4CCc4ccccc43)CC2)n1"
24.8

Observed Increase on DC3F/AD for "C=CCNc1nc(NCC=C)nc(N2CCC(NC(c3ccc(F)cc3)c3ccc(F)cc3)CC2)n1" , please.
25.1

Return Increase measured with DC3F/AD given this compound: "C=CCNc1nc(NCC=C)nc(N2CCC(NCCC(c3ccccc3)c3ccccc3)CC2)n1"
29.8

Hello, I am looking for reported Increase with DC3F/AD for C=CCNc1nc(NCC=C)nc(NCC(O)CN2CCC(NCC3c4ccccc4CCc4ccccc43)CC2)n1 (stereo not given) . Could you help?
12.6

Lab note: need Increase with DC3F/AD for entry "C=CCNc1nc(NCC=C)nc(N2CCC(NCC(c3ccccc3)c3ccccc3)CC2)n1" , please look it up.
34.7

What reported Increase corresponds to "C=CCNc1nc(NCC=C)nc(N2CCC(NCC3c4ccccc4Oc4ccccc43)CC2)n1" on DC3F/AD?
25.7

Find the measured Increase: item "C=CCNc1nc(NCC=C)nc(N2CCC(SC(c3ccccc3)c3ccccc3)CC2)n1" , target or system DC3F/AD.
28.3

I'm curious: which Increase was measured for C=CCNc1nc(NC)nc(N2CCC(NCC3c4ccccc4COc4ccccc43)CC2)n1 (stereo not given) tested on DC3F/AD?
21.5

API: value(readout=Increase, system=DC3F/AD) for record "C=CCNc1nc(NCCC)nc(N2CCC(NCC3c4ccccc4CCc4ccccc43)CC2)n1"
24.9

For DC3F/AD, provide Increase of C=CCNc1nc(NCC=C)nc(N2CCC(NCC3c4ccccc4CSc4ccccc43)CC2)n1 (stereo not given) please.
32.6

Recall the recorded Increase for C=CCNc1nc(NCC=C)nc(NCC(O)CN2CCC(NC3c4ccccc4CCc4ccccc43)CC2)n1 (stereo not given) with DC3F/AD and state it.
12.9

Hi! What's the reported Increase for "C=CCNc1nc(NCCC)nc(N2CCC(NCC(c3ccccc3)c3ccccc3)CC2)n1" on DC3F/AD?
34.2

API: value(readout= Increase, system= DC3F/AD, query= "C=CCNc1nc(NCC=C)nc(N2CCC(N(CC=C)C(c3ccc(F)cc3)c3ccc(F)cc3)CC2)n1" )
33.9

Recall the recorded Increase for C=CCNc1nc(NCC=C)nc(N2CCC(NCC(c3cc(OC)cc(OC)c3)c3ccccc3C)CC2)n1 (stereo not given) with DC3F/AD and state it.
26.5

// lookup Increase | system=DC3F/AD | key= C=CCNc1nc(NCC=C)nc(N2CCC(NC3CC4c5ccccc5C3c3ccccc34)CC2)n1 (stereo not given)
35.9

For the record C=CCNc1nc(NCC=C)nc(N2CCC(NCC(c3ccc(F)cc3)C3CCCCC3)CC2)n1 (stereo not given) , what value of Increase is listed for DC3F/AD?
34.6

Give DC3F/AD Increase for "C=CCNc1nc(NCC=C)nc(N2CCC(NCC(c3ccc(F)cc3)c3ccc(F)cc3)CC2)n1"
35.6

Tell me reported Increase for "C=CCNc1nc(NCCC)nc(N2CCC(NC(c3ccc(F)cc3)c3ccc(F)cc3)CC2)n1.Cl.Cl" , tested with DC3F/AD.
25.5

Kindly state the measured Increase obtained for C=CCNc1nc(NCC=C)nc(N2CCC(NCC3c4ccccc4N(C)S(=O)(=O)c4cc(Cl)ccc43)CC2)n1 (stereo not given) with DC3F/AD.
24.1

Form field - read-out: Increase; system: DC3F/AD; submitted item: "C=CCNc1nc(NCC=C)nc(NCC2CCN(CC3c4ccccc4CCc4ccccc43)CC2)n1"
21

Request: Increase, test system DC3F/AD, entry "C=CCNc1nc(NCC=C)nc(N2CCC(NCCC(c3ccc(OC)c(OC)c3)c3ccc(OC)c(OC)c3)CC2)n1"
2.9

Param readout= Increase; system= DC3F/AD; entry= "C=CCNc1nc(NCCC)nc(N2CCC(NCCC(c3ccccc3)c3ccccc3)CC2)n1" ; returns value.
27.2

Request body: readout Increase, system DC3F/AD, query "C=CCNc1nc(NCC=C)nc(N2CCC(N(CC)C(c3ccc(F)cc3)c3ccc(F)cc3)CC2)n1" . Return the value.
44.7

Give Increase (DC3F/AD) of the following compound: "C=CCNc1nc(NCC=C)nc(N2CCC(SCCC(c3ccccc3)c3ccccc3)CC2)n1"
19.7
